Source: patent US20220363770A1

# system under test: human CGRP receptor (human CRLR / human RAMP1 heterodimer) (human, UniProt Q16602 23-461; O60894 27-148)
# Sequence (Q16602 23-461 limits assumed, chain 1 of 2): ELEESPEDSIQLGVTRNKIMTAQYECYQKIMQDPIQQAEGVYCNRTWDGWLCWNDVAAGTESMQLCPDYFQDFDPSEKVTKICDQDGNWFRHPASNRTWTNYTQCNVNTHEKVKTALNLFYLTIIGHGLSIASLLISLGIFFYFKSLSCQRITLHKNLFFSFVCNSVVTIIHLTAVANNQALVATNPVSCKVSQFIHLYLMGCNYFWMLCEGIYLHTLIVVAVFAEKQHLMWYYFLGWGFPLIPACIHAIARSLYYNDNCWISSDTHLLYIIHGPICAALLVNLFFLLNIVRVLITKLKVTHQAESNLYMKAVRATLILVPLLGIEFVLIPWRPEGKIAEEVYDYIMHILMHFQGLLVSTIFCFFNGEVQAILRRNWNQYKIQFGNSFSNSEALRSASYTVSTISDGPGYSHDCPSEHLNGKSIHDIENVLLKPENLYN
# Sequence (O60894 27-148 limits assumed, chain 2 of 2): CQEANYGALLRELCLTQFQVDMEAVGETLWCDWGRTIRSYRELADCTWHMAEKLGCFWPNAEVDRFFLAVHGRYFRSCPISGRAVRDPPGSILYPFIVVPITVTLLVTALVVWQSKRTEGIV
# assay details: cell-based or functional assay
measured attribute: Run 1 IC50 (nM), cell-based cAMP assay, SK-N-MC cells, 3 nM human α-CGRP

{"binder": "anti-CGRP receptor variant antibody 07, bivalent monoclonal antibody (antibody, human IgG1, lambda, N297G, V domains shown) VH: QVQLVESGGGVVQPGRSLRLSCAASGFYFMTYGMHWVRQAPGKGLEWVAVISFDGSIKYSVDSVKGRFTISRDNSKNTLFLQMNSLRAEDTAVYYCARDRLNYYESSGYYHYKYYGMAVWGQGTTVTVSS VL: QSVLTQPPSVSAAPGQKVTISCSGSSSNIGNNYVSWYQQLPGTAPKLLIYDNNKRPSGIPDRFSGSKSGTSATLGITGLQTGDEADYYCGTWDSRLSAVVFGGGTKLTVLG", "test value": 0.18}
{"binder": "anti-CGRP receptor variant antibody 09, bivalent monoclonal antibody (antibody, human IgG1, lambda, N297G, V domains shown) VH: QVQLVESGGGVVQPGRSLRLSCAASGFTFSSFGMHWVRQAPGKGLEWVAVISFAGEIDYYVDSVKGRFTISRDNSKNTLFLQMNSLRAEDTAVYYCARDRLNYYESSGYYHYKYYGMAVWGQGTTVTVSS VL: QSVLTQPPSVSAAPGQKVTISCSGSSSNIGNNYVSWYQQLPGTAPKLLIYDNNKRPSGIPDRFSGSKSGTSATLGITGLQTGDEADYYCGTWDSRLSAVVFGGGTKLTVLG", "test value": 0.73}
{"binder": "anti-CGRP receptor variant antibody 05, bivalent monoclonal antibody (antibody, human IgG1, lambda, N297G, V domains shown) VH: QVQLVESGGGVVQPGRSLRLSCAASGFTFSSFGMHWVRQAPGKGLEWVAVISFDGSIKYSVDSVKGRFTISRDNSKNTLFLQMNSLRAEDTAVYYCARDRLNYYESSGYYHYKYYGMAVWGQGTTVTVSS VL: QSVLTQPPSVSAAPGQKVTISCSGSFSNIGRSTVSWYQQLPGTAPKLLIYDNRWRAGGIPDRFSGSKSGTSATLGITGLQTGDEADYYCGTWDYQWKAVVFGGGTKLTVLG", "test value": 0.15}
